Tested on: SK-MEL-28 melanoma
test.details: NCI tumour cell line growth inhibition, 48 h
Where a SMILES comes first, the peptide text is derived from it. [ ]: non-standard residue; d: D form. Ac5c = NC1(C(=O)O)CCCC1

compound	TGI
COc1ccc2cc(Oc3ccc(Cl)cc3)c(=O)oc2c1	> 100 µM
COc1cc(S(=O)(=O)Nc2nc(-c3ccc(N4C(=O)CSC4c4cccs4)cc3)cs2)ccc1Cl (stereo not given)	> 100 µM
Nc1c(C(=O)c2ccc(Cl)cc2)sc(Nc2ccccc2)c1-c1nc2ccccc2s1	> 100 µM
Ic1ncnc2c1ncn2C1CCCO1 (stereo not given)	> 100 µM
OC(CCN1CCCCC1)(c1ccccc1)c1ccccc1	> 100 µM
O=c1ccn(C2OC(CO)C(O)C2F)c(=O)[nH]1 (stereo not given)	> 1000 µM
O=C1c2cccc3cc([N+](=O)[O-])cc(c23)C(=O)N1CCCN1CCN(CCCNc2ccc3ncn4c5ccccc5c(=O)c2c34)CC1	> 25.5 µM
CCOC(=O)C(SCCO)C(C(=O)OCC)n1cnc2c(N)ncnc21 (stereo not given)	34.3 µM
CCC(C)C(C(=O)N/N=C1/SCC(=O)N1c1ccccc1)C(=O)N/N=C1/SCC(=O)N1c1ccccc1 (stereo not given)	33.9 µM
NC1(C(=O)NC2(C(=O)O)CCCC2)CCCC1 (H-[Ac5c]-[Ac5c]-OH)	> 100 µM
